Source of measurements: PubChem BioAssay

Procedure Details: small-molecule binders of probe aNOTCH3, primary screen, biochemical, small-molecule microarray, 635/667 nm fluorescence (AID 1120);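 further: probe is a biotin-tagged antibody raised against NOTCH3 rather than NOTCH3 protein; score merges spot fluorescence near 667 nm with spot signal to noise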
Experimental Context: higher = more signal
Measurement Kind: composite z-score

Query :: State the recorded composite z-score for this entry: CN(C)C(=O)[C@]1(CCS(=O)(=O)c2ccccc2)N=C(c2ccc(OCCCO)cc2)O[C@@H]1c1ccccc1
Result :: 0.201

Query :: What do you have for CN1C(=O)C2C=CC(C(O)c3ccc(I)cc3)N(Nc3ccccc3)C2C1=O (stereo not drawn) ?
Result :: 0.323

Query :: What do you have for CCOC(=O)C1=C[C@@H](c2ccccc2)N(S(=O)(=O)c2ccc(C)cc2)[C@H]1c1ccccc1 ?
Result :: 0.0636

Query :: What do you have for O=C1C2C=CC(C(O)c3ccc4c(c3)OCO4)N(Nc3ccccc3)C2C(=O)N1c1ccccc1 (stereo not drawn) ?
Result :: 0.345

Query :: What do you have for C=CCC(OC(C)=O)[C@@H]1[C@@H](N(Cc2cc3ccccc3o2)C(=O)c2ccc(-c3ccccc3)cc2)c2cc(OCCCO)ccc2N1C(=O)Cc1ccc(OC)cc1 (stereo partly drawn) ?
Result :: -0.0189

Query :: What do you have for CC(C)C(=C=CC[C@@H](O)c1cccc(OCCO)c1)C[C@@H](O)c1ccccn1 ?
Result :: -0.0362

Query :: What do you have for CC(C)=CCCC(C)=CC(O)C1C=CC2C(=O)N(c3ccccc3)C(=O)C2N1Nc1ccccc1F (stereo not drawn) ?
Result :: 0.0258

Query :: What do you have for COC(=O)C1=CC(CCCO)=CC(C)N(Cc2cccc(OC(F)(F)F)c2)C=C1C(=O)OC (stereo not drawn) ?
Result :: 0.147
